- tested-system: Tyrosine-protein kinase Fgr (Homo sapiens) (UniProt P09769)
- Sequence (P09769 2-529 limits assumed): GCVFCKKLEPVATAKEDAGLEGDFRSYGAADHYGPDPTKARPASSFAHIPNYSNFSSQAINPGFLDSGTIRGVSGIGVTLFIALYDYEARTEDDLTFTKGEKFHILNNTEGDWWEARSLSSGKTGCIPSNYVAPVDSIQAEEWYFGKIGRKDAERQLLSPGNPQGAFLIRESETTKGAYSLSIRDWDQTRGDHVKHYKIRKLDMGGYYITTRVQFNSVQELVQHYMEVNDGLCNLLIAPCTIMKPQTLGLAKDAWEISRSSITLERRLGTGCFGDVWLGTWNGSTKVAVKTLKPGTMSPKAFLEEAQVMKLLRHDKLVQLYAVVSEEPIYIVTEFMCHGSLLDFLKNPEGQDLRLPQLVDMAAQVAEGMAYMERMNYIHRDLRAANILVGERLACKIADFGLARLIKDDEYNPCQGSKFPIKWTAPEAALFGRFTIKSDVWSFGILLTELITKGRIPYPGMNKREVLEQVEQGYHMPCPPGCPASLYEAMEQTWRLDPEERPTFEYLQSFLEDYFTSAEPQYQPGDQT
- test-context: at 10 µM
recorded-metric: residual activity (%)
Report the value in % with no unit label.

Notebook: COc1ccc(OC)c2c(=S)c3ccccc3[nH]c12 , residual activity read as 99

The value of residual activity measured for the molecule CC(=O)c1ccc(N2CCOCC2)cc1O turned out to be 102

Cn1cc(/C=C2\C(=O)Nc3ccc(S(N)(=O)=O)cc32)c2ccccc21 has a reported residual activity of 10

The molecule listed as O=[N+]([O-])c1ccc(-c2nc(-c3ccc(F)cc3)c(-c3ccncc3)[nH]2)cc1 shows residual activity equal to 96

// field: residual activity; key: O=C1NC(=O)c2c1c1c3ccccc3[nH]c1c1[nH]c3cc(Br)ccc3c21 ; value = 91

Quick note, residual activity for CCC(=O)Nc1ccc2ncnc(Nc3cccc(Br)c3)c2c1 landed at 76

* * *

- tested-system: Interleukin-1 receptor-associated kinase 4 (Homo sapiens) (UniProt Q9NWZ3)
- Sequence (Q9NWZ3 whole entry): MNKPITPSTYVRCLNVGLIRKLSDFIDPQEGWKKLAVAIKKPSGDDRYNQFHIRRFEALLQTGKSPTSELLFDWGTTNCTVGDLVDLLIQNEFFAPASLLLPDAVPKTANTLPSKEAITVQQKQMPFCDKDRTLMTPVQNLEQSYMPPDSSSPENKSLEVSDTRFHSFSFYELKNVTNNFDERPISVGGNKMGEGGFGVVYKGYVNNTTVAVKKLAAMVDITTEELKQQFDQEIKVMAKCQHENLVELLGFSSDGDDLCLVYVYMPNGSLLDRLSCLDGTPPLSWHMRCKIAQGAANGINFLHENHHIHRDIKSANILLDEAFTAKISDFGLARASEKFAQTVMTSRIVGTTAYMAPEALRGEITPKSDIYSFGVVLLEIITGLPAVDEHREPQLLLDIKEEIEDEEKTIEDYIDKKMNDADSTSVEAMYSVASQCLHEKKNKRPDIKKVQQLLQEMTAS
- test-context: at 10 µM
Strictly below 90% in residual activity: Fulfilled. Otherwise: Not fulfilled.

[in] Criterion: residual activity strictly below 90%. Is it met by CO[C@H]1[C@@H](OC)C[C@H](C)[C@@H](OC)C2=CC(=O)C=C(NC(=O)/C(C)=C/C=C/[C@H](OC)[C@@H](OC(N)=O)/C(C)=C/[C@@H]1C)C2=O ?
[out] Not fulfilled

[in] Please check: residual activity for CNc1cc2c(Nc3cccc(Br)c3)ncnc2cn1 , strictly under 90% or not?
[out] Fulfilled

[in] Would you kindly verify if residual activity of O=[N+]([O-])c1ccc(-c2nc(-c3ccc(F)cc3)c(-c3ccncc3)[nH]2)cc1 is strictly less than 90%?
[out] Not fulfilled

[in] For COc1ccc(OC)c2c(=S)c3ccccc3[nH]c12 , is the recorded residual activity below the cut-off of 90%?
[out] Fulfilled

[in] Is the reported residual activity for Cc1nc2cc3nc(-c4cccs4)cnc3cc2n1C strictly below 90%?
[out] Fulfilled

[in] Please check: residual activity for COc1ccc(S(=O)(=O)N(CCO)c2ccccc2CN(C)C/C=C/c2ccc(Cl)cc2)cc1 , strictly under 90% or not?
[out] Fulfilled

[in] Item O=C1Nc2ccc(Br)cc2/C1=C\c1cc2c([nH]1)CCCC2 : residual activity beneath 90%, strictly?
[out] Fulfilled

[in] Does this molecule meet the criterion residual activity < 90%? O=Nc1c(-c2c(O)[nH]c3ccccc23)[nH]c2ccccc12
[out] Fulfilled

[in] In the record for COc1cc2ncnc(Nc3ccc(Oc4ccccc4)cc3)c2cc1OC , is residual activity less than 90%?
[out] Fulfilled

[in] Is it true that residual activity reported for Cn1cc(/C=C2\C(=O)Nc3ccc(S(N)(=O)=O)cc32)c2ccccc21 is less than 90%?
[out] Fulfilled

[in] Hello, I'm reviewing records and need to know if residual activity of CN(C)CCCn1cc(C2=C(c3c[nH]c4ccccc34)C(=O)NC2=O)c2ccccc21 is below 90%. Could you check?
[out] Fulfilled

[in] Answer whether the molecule CC(=O)c1ccc(N2CCOCC2)cc1O has residual activity strictly less than 90%
[out] Not fulfilled

[in] Input CCN(CC)CCCCN1c2ccccc2Oc2ccc(Cl)cc21 ; condition: residual activity strictly below 90%. Does it hold?
[out] Not fulfilled

[in] residual activity strictly < 90% for this molecule? COc1cc2ncnc(Nc3ccc(NC(=O)c4ccccc4)cc3)c2cc1OC
[out] Not fulfilled

[in] Check if residual activity falls below 90% for O=C1NC(=O)c2c1c1c3ccccc3[nH]c1c1[nH]c3cc(Br)ccc3c21 .
[out] Fulfilled

[in] Lab log: compare recorded residual activity with 90%; is it strictly lower for O=c1cc(-c2cccc3c2Sc2ccccc2S3)oc(N2CCOCC2)c1 ?
[out] Not fulfilled

[in] Regarding N#CCCc1ccc2c(c1)-c1[nH]c3ccc([N+](=O)[O-])cc3c1CC(=O)N2 , kindly confirm whether its residual activity is beneath 90%.
[out] Fulfilled

[in] # strict comparison: is reported residual activity < 90%? input = O=C1NC(=O)c2cc(Nc3ccc(F)cc3)c(Nc3ccc(F)cc3)cc21
[out] Not fulfilled

[in] hey, is residual activity for COc1ccc(C(=O)Nc2sc3c(c2C(N)=O)CCCC3)cc1OC lower than 90% or not?
[out] Fulfilled

[in] Consider COc1cccc(-c2cc(=O)c3ccccc3o2)c1N . Does its residual activity lie strictly below 90%?
[out] Not fulfilled

[in] Please indicate whether the reported residual activity of c1ccc2c(-c3ccncc3)c[nH]c2c1 is strictly below 90%.
[out] Not fulfilled
